Attribution: paper PMC9862096

target: mouse P–gp (mP–gp) (Mus musculus); construct: made in house; host or cells: High-Five insect cells (Invitrogen), recombinant baculovirus; total membrane vesicles; assay: P–gp ATPase activity (vanadate-sensitive, end point Pi release) in native membranes; format: biochemical; conditions: Equation (9), local concentrations, n = 1 binding sites; read-out: Kd, microscopic dissociation constant
Sequence (P21447 whole entry): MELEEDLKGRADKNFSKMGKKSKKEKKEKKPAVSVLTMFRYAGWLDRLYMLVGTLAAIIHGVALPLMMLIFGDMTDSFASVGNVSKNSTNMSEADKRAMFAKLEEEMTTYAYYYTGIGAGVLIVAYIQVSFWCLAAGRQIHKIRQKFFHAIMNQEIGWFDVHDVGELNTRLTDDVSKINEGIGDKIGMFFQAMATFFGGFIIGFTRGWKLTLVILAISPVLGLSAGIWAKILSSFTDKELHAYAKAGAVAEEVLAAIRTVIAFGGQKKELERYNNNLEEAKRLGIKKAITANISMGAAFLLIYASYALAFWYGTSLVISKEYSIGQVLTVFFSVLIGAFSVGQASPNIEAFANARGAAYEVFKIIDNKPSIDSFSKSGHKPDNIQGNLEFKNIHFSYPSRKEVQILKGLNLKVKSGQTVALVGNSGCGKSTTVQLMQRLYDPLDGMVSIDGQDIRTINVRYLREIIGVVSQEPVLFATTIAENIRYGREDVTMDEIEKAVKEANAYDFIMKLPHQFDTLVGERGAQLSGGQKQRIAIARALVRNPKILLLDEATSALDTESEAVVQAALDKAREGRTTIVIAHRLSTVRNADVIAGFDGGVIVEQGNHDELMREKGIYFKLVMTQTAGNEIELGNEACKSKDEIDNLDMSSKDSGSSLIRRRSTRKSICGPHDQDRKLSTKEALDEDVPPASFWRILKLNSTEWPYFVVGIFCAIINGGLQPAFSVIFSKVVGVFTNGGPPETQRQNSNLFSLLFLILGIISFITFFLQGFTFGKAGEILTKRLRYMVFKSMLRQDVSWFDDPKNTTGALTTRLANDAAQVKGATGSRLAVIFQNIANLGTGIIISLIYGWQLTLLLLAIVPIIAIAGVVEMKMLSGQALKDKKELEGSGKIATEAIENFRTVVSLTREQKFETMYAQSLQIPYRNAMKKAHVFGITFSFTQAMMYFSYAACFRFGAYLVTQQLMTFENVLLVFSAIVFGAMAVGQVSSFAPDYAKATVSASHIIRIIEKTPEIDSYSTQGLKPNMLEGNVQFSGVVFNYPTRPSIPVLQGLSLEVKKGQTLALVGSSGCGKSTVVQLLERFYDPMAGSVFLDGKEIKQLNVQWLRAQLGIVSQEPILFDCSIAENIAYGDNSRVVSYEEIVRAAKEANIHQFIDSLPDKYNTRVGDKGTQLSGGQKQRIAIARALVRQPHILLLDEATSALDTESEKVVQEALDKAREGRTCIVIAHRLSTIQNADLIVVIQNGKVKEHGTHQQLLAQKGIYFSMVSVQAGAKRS
pKd: −log10 of the molar value.
propertyMeasured: pKd

[[record]]
molecule = "CCCCCCCCNc1ccc([N+](=O)[O-])c2nonc12"
propertymeasured = "pKd"
number = 5.52

[[record]]
molecule = "CCCCNc1ccc([N+](=O)[O-])c2nonc12"
propertymeasured = "pKd"
number = 4.12

[[record]]
molecule = "CCCCCCCCCCCCCC(=O)OCC(O)COP(=O)(O)OCCNc1ccc([N+](=O)[O-])c2nonc12 (stereo not drawn)"
propertymeasured = "pKd"
number = 4.70

